target: recombinant cynomolgus monkey CD3ε/δ heterodimer (cynomolgus monkey) (UniProt Q95LI5); test: ELISA, coated CD3ε/δ
Sequence (Q95LI5 22-117, stated change not applied, chain 1 of 2): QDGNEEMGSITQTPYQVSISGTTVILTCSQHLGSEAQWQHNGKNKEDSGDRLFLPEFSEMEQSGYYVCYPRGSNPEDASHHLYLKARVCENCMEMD
Sequence (Q95LI8 22-105, stated change not applied, chain 2 of 2, further chain): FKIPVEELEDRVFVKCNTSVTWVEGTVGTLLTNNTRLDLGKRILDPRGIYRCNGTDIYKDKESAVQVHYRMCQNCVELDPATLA
The entries below are paired with their reported Absorbance (450 nm).
The reply should be a number, written without any unit.

BINDER	Absorbance (450 nm)
B04 (antibody, human IgG1, lambda, L234A L235A, V domains shown) VH: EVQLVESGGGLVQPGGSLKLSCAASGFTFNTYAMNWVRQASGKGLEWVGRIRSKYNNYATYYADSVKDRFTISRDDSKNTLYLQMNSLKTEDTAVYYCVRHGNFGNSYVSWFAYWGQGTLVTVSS VL: QAVVTQEPSLTVSPGGTVTLTCRSSTGAVTTSNYANWFQQKPGQAPRTLIGGTNKRAPWTPARFSGSLLGDKAALTLSGAQPEDEAEYYCALWYSNLWVFGGGTKLTVLG	0.059
D08 (antibody, human IgG1, lambda, L234A L235A, V domains shown) VH: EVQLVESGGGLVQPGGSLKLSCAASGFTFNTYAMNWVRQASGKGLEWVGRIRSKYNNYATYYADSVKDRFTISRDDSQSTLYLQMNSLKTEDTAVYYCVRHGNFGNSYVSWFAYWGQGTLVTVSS VL: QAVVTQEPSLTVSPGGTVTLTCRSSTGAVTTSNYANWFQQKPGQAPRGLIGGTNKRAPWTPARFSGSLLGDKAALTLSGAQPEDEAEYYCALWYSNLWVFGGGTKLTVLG	2.53

Next, consider the following binder.
Qu. Look up Absorbance (450 nm) of C12 (antibody, human IgG1, lambda, L234A L235A, V domains shown) VH: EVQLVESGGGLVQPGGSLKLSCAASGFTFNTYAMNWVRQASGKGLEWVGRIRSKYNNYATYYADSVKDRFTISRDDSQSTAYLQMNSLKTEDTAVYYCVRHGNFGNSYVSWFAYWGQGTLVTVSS VL: QAVVTQEPSLTVSPGGTVTLTCRSSTGAVTTSNYANWVQQKPGQAPRTLIGGTNKRAPWTPARFSGSLLGDKAALTLSGAQPEDEAEYYCALWYSNLWVFGGGTKLTVLG and report it.
Ans. 0.065
